Molecular target: E. coli RNase P holoenzyme (M1 P RNA + rnpA protein)
Sequence: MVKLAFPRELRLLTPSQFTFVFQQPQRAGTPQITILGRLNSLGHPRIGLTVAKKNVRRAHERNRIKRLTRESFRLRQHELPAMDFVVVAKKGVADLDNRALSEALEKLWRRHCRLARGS
Test: relative kcat/Km (krel) vs genomic leader AAAGAU (relative (reference leader = 1)); higher = faster RNase P cleavage
Conditions: fraction of substrate reacted: ~13-16% (15.68% repeat 1, 13.17% repeat 2)
Over roughly 4,100 sequences, “relative kcat/Km (krel) vs genomic leader AAAGAU” has its median near 1.7; the highest 2% begin near 6.5. For the sample, the highest values were picked, then their nearest neighbours and some sequences at random.
Each entry below carries its reported relative kcat/Km.
Measured parameter: relative kcat/Km

{"Construct sequence": "GCCAAT", "Result": 2.75}
{"Construct sequence": "GACTAA", "Result": 5.64}
{"Construct sequence": "CTACGT", "Result": 0.978}
{"Construct sequence": "GTTTAC", "Result": 4.65}
{"Construct sequence": "TTTATT", "Result": 3.08}
{"Construct sequence": "TGATAT", "Result": 3.77}
{"Construct sequence": "CCTCAC", "Result": 3.07}
{"Construct sequence": "TCGTCC", "Result": 5.03}
{"Construct sequence": "ACTTTA", "Result": 1.89}
{"Construct sequence": "ATCAAG", "Result": 1.96}
{"Construct sequence": "ATAGTC", "Result": 1.42}
{"Construct sequence": "GTTTTA", "Result": 2.56}
{"Construct sequence": "TCGTAC", "Result": 5.11}
{"Construct sequence": "CGTCAT", "Result": 4.98}
{"Construct sequence": "CTGACC", "Result": 0.599}
{"Construct sequence": "ACCAAG", "Result": 0.763}
{"Construct sequence": "AACTGT", "Result": 0.97}
{"Construct sequence": "CTCCAT", "Result": 5.67}
{"Construct sequence": "TTCTCT", "Result": 6.17}
{"Construct sequence": "ATCTCT", "Result": 4.36}
{"Construct sequence": "GCGTCC", "Result": 1.73}
{"Construct sequence": "CCGTGC", "Result": 0.908}
{"Construct sequence": "ATCTCA", "Result": 4.25}
{"Construct sequence": "TGACAC", "Result": 4.21}
{"Construct sequence": "TAATCG", "Result": 0.624}
{"Construct sequence": "TTTTAC", "Result": 4.76}
{"Construct sequence": "TCACAC", "Result": 4.7}
{"Construct sequence": "CGTCAA", "Result": 3.42}
{"Construct sequence": "TTTTAT", "Result": 5.6}
{"Construct sequence": "TGCCAA", "Result": 2.55}
{"Construct sequence": "CAAGAT", "Result": 0.704}
{"Construct sequence": "TACTGT", "Result": 1.56}
{"Construct sequence": "TTCCAA", "Result": 6.03}
{"Construct sequence": "CGCCAT", "Result": 4.6}
{"Construct sequence": "TCGTAT", "Result": 4.78}
{"Construct sequence": "GCGTAC", "Result": 1.98}
{"Construct sequence": "CCGTAT", "Result": 4.32}
{"Construct sequence": "ATTTAC", "Result": 4.75}
{"Construct sequence": "CTTTAC", "Result": 4.59}
{"Construct sequence": "TATACA", "Result": 2.13}
{"Construct sequence": "GTCTCA", "Result": 5.79}
{"Construct sequence": "GTATCT", "Result": 3.23}
{"Construct sequence": "TCGTAA", "Result": 3.79}
{"Construct sequence": "GTCCAG", "Result": 2.9}
{"Construct sequence": "GTTTAT", "Result": 5.18}
{"Construct sequence": "GTGTAC", "Result": 2.01}
{"Construct sequence": "GGCGTC", "Result": 1.48}
{"Construct sequence": "TTCCCC", "Result": 4.17}
{"Construct sequence": "GTCTCT", "Result": 5.51}

###

Each entry below carries its reported relative kcat/Km.
Biological target: E. coli RNase P holoenzyme (M1 P RNA + rnpA protein) (UniProt P0A7Y8)
Sequence: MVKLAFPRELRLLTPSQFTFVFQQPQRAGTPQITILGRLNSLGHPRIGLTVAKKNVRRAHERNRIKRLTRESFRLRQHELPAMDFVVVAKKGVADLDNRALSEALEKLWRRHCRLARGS
Assay: relative kcat/Km (krel) vs genomic leader AAAGAU (relative (reference leader = 1)); higher = faster RNase P cleavage
Details: fraction of substrate reacted: ~26-29% (28.66% repeat 1, 26.4% repeat 2)
In all, about 4,100 sequences were measured (“relative kcat/Km (krel) vs genomic leader AAAGAU”: median about 1.7, highest 2% from about 6.5 on). The full list was thinned out, with the highest values kept by preference.

{"Construct sequence": "TCCTCG", "relative kcat/Km": 3.64}
{"Construct sequence": "TATACA", "relative kcat/Km": 3.02}
{"Construct sequence": "AGAACC", "relative kcat/Km": 1.82}
{"Construct sequence": "CGCCGT", "relative kcat/Km": 1.06}
{"Construct sequence": "CTTTTT", "relative kcat/Km": 4.46}
{"Construct sequence": "AAGCAT", "relative kcat/Km": 3.28}
{"Construct sequence": "ACAGTG", "relative kcat/Km": 0.981}
{"Construct sequence": "GCACGC", "relative kcat/Km": 1.29}
{"Construct sequence": "GTCATG", "relative kcat/Km": 3.5}
{"Construct sequence": "CCTTCA", "relative kcat/Km": 1.84}
{"Construct sequence": "TCATCT", "relative kcat/Km": 4.09}
{"Construct sequence": "AAGCAC", "relative kcat/Km": 3.12}

###

Biological target: E. coli RNase P holoenzyme (M1 P RNA + rnpA protein) (UniProt P0A7Y8)
Sequence: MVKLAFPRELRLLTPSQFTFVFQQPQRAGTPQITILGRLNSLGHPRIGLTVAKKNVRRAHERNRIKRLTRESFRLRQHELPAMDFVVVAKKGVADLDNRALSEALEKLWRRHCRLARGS
Assay: relative kcat/Km (krel) vs genomic leader AAAGAU (relative (reference leader = 1)); higher = faster RNase P cleavage
Conditions: fraction of substrate reacted: ~9-10% (9.79% repeat 1, 9.1% repeat 2)
In all, about 4,100 sequences were measured (“relative kcat/Km (krel) vs genomic leader AAAGAU”: median about 1.7, highest 2% from about 6.5 on). The sample holds the highest values, similar sequences and a random draw of the others, so the mix is not that of the screen.
Each entry below carries its reported relative kcat/Km.
Measured parameter: relative kcat/Km

{"Construct sequence": "CGGGCA", "Result": 1.28}
{"Construct sequence": "CACAAA", "Result": 3.35}
{"Construct sequence": "GTTACA", "Result": 1.9}
{"Construct sequence": "GTTGTT", "Result": 0.832}
{"Construct sequence": "CCTAAA", "Result": 2.53}
{"Construct sequence": "ACGCTA", "Result": 1.05}
{"Construct sequence": "TTTTAT", "Result": 4.55}
{"Construct sequence": "AGTATT", "Result": 2.4}
{"Construct sequence": "GCGTCC", "Result": 1.32}
{"Construct sequence": "TCGCAT", "Result": 2.12}
{"Construct sequence": "TTGCCT", "Result": 1.95}
{"Construct sequence": "CCGGTA", "Result": 1.49}
{"Construct sequence": "TACTAC", "Result": 5.21}
{"Construct sequence": "GCGAAT", "Result": 0.964}
{"Construct sequence": "TTTCAT", "Result": 4.15}
{"Construct sequence": "TAAACA", "Result": 1.85}
{"Construct sequence": "TTTATT", "Result": 2.77}
{"Construct sequence": "GACACC", "Result": 3.17}
{"Construct sequence": "GTTTAA", "Result": 3.62}
{"Construct sequence": "ATTCAT", "Result": 2.95}
{"Construct sequence": "CCGTAT", "Result": 3.19}
{"Construct sequence": "TAGCTT", "Result": 1.84}
{"Construct sequence": "GACAAC", "Result": 3.9}
{"Construct sequence": "CTTGGA", "Result": 1.23}
{"Construct sequence": "TCGGAA", "Result": 1.2}
{"Construct sequence": "TATCAC", "Result": 4.08}
{"Construct sequence": "ATCCTC", "Result": 3.86}
{"Construct sequence": "GTCCTC", "Result": 3.46}
{"Construct sequence": "GCGTAC", "Result": 2.64}
{"Construct sequence": "CGCGTA", "Result": 2.07}
{"Construct sequence": "GATCAC", "Result": 2.93}
{"Construct sequence": "TTGTAC", "Result": 3.78}
{"Construct sequence": "TTCCTT", "Result": 4.47}
{"Construct sequence": "GTATTT", "Result": 3.06}
{"Construct sequence": "ATAACT", "Result": 1.28}
{"Construct sequence": "TTTTAG", "Result": 3.3}
{"Construct sequence": "CACTAA", "Result": 4.69}
{"Construct sequence": "CGGACG", "Result": 1.05}
{"Construct sequence": "AGCCGC", "Result": 3.07}
{"Construct sequence": "CTATAT", "Result": 4.48}
{"Construct sequence": "CAGTCA", "Result": 1.56}
{"Construct sequence": "AACTCC", "Result": 3}
{"Construct sequence": "TTTTAC", "Result": 3.74}
{"Construct sequence": "TACGTT", "Result": 1.82}
{"Construct sequence": "TCTAAG", "Result": 2.04}
{"Construct sequence": "CACAAG", "Result": 1.66}
{"Construct sequence": "GGAAGA", "Result": 2.26}
{"Construct sequence": "CCCGAA", "Result": 2.83}
{"Construct sequence": "GTTTAT", "Result": 3.69}
{"Construct sequence": "GACTAT", "Result": 4.87}
{"Construct sequence": "CCCGAT", "Result": 2.59}
{"Construct sequence": "CTTTAC", "Result": 4.38}
{"Construct sequence": "CTATAA", "Result": 3.33}
{"Construct sequence": "TTTTTT", "Result": 3.31}
{"Construct sequence": "GCCTAG", "Result": 2.58}
{"Construct sequence": "TTCCTC", "Result": 4.47}
{"Construct sequence": "CCCTAG", "Result": 3.11}
{"Construct sequence": "GTCCTT", "Result": 3.67}
{"Construct sequence": "GCGAAA", "Result": 2.4}
{"Construct sequence": "CACTCT", "Result": 3.97}
{"Construct sequence": "GCTTTC", "Result": 2.29}
{"Construct sequence": "AATCAT", "Result": 3.17}
{"Construct sequence": "AACAAA", "Result": 3.32}
{"Construct sequence": "AGAAAG", "Result": 1.38}
{"Construct sequence": "ACCGAC", "Result": 2.3}
{"Construct sequence": "TACTAG", "Result": 3.46}
{"Construct sequence": "GTTCAC", "Result": 3.88}
{"Construct sequence": "TTGTAG", "Result": 2.4}
{"Construct sequence": "GGCACT", "Result": 1.99}
{"Construct sequence": "GTTTAC", "Result": 3.75}
{"Construct sequence": "GTTCAT", "Result": 3.32}
{"Construct sequence": "TAATTC", "Result": 2.12}
{"Construct sequence": "TGCAAA", "Result": 0.962}
{"Construct sequence": "ATAAGA", "Result": 1.69}
{"Construct sequence": "AACTAT", "Result": 3.41}
{"Construct sequence": "GGTAGA", "Result": 2.41}
{"Construct sequence": "ATTTAC", "Result": 4.31}
{"Construct sequence": "TACTAA", "Result": 5.23}
{"Construct sequence": "GCCTAA", "Result": 2.35}
{"Construct sequence": "TATCAT", "Result": 4.22}
{"Construct sequence": "AACTTC", "Result": 3.37}
{"Construct sequence": "TAACTC", "Result": 1.62}
{"Construct sequence": "CGGACC", "Result": 0.889}
{"Construct sequence": "CACTGA", "Result": 2.94}
{"Construct sequence": "CTACGT", "Result": 0.396}
{"Construct sequence": "AACTAA", "Result": 2.93}
{"Construct sequence": "CTTCAA", "Result": 3.2}
{"Construct sequence": "TACTCC", "Result": 3.23}
{"Construct sequence": "TTTCAA", "Result": 2.81}
{"Construct sequence": "TACAAA", "Result": 3.89}
{"Construct sequence": "TTATAG", "Result": 2.25}
{"Construct sequence": "CTTCAT", "Result": 4.07}
{"Construct sequence": "AATCAC", "Result": 2.09}
{"Construct sequence": "AAACGA", "Result": 2.12}
{"Construct sequence": "TCGTCC", "Result": 3.8}
{"Construct sequence": "GACAGC", "Result": 3.44}
{"Construct sequence": "GATCAT", "Result": 2.26}
